# assay-system: Axl (UniProt P30530)
# Sequence (P30530 26-451 limits assumed): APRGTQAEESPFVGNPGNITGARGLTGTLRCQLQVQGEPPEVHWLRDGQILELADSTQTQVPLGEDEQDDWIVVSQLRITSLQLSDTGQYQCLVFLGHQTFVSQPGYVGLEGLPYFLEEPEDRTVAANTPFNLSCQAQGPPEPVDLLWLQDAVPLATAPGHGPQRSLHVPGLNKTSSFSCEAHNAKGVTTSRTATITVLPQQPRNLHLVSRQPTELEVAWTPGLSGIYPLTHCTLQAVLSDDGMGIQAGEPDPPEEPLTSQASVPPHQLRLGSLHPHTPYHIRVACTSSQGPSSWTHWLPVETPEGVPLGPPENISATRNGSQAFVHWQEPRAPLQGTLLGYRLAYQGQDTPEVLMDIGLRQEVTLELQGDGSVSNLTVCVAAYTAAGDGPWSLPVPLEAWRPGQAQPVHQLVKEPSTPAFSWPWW
# experiment-description: ELISA, 1:9 dilution
Answer each item with its documented Affinity ELISA CPE mutant ratio (1:9, pH 6.0/7.4).
Give bare numbers.

HC-T030A (antibody, V domains shown) VH: EVQLVQSGAEVKKPGATVKISCKVSGYSFAGHTMNWIRQPPGKGLEWIGLIKPSNGGTSYNQKFKGRVTISADKSISTAYLQWSSLKASDTAMYYCAHGHYESYFAMDYWGQGTLVTVSS VL: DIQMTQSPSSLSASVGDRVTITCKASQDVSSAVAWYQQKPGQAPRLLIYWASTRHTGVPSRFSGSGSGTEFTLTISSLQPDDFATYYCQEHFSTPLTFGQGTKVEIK
1.76
LC-F092G (antibody, V domains shown) VH: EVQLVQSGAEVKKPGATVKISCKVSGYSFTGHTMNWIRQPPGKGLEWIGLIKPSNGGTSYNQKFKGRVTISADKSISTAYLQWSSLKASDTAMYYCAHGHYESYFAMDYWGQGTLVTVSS VL: DIQMTQSPSSLSASVGDRVTITCKASQDVSSAVAWYQQKPGQAPRLLIYWASTRHTGVPSRFSGSGSGTEFTLTISSLQPDDFATYYCQEHGSTPLTFGQGTKVEIK
4.76

Return Affinity ELISA CPE mutant ratio (1:9, pH 6.0/7.4) for the following binder: HC-E102M (antibody, V domains shown) VH: EVQLVQSGAEVKKPGATVKISCKVSGYSFTGHTMNWIRQPPGKGLEWIGLIKPSNGGTSYNQKFKGRVTISADKSISTAYLQWSSLKASDTAMYYCAHGHYMSYFAMDYWGQGTLVTVSS VL: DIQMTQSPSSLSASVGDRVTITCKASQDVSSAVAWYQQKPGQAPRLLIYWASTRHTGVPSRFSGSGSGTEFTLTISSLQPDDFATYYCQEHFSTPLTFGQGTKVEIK
2.36
